# targetUnderTest: T1, H-2 K^d molecules purified by affinity chromatography (human, UniProt P61769 21-119; P01902 22-305)
# T1 construct: MHC class I molecule, 1-10 nM in the assay, with added human beta-2 microglobulin; also called purified MHC molecules
# protocolText: radiolabeled peptide inhibition assay, purified H-2 K^d;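 further: competitive binding with labeled probe peptide kept below MHC concentration, so IC50 approximates the dissociation constant KD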
The following binders are listed with their measured log10(IC50) values.
endpointName: log10(IC50) (log10 of the value in nM)

INSERT INTO measurements (binder, endpointname, quantitativeresult) VALUES
  ('PYLTQYAII (Mut of P(y/D)LTQYAII; CMS5) [Dhx8.3 Mut peptide]', 'log10(IC50)', 2.39),
  ('KLQRQYRSPRL (CMS5) [Mast2 Mut peptide]', 'log10(IC50)', 4.00),
  ('SDRLPSSRKK [M112 WT peptide]', 'log10(IC50)', 1.23),
  ('DYVPMEQPRPP (CMS5) [Alkbh6.4 Mut peptide]', 'log10(IC50)', 4.67),
  ('ADILAALTKL [Trim26.1 WT peptide]', 'log10(IC50)', 0.04),
  ('AYILAALTKL (Meth A) [Trim26.1 Mut peptide]', 'log10(IC50)', 2.79),
  ('KLQRQYRSPRR [Mast2 WT peptide]', 'log10(IC50)', 3.93);
